Data credit: ChEMBL document CHEMBL1143038

- MEASUREMENT_PROTOCOL: Antioxidant activity assessed as ABTS radical scavenging activity
- Type: functional
pIC50: −log10 of the molar value.
RESULT_TYPE: pIC50

In plain terms, CC(=O)/C=C(O)/C(=C\c1ccc(O)c(O)c1)c1c(O)cc(/C=C/c2ccc(O)c(O)c2)oc1=O has a documented pIC50 of 4.85

In plain terms, CC(=O)/C(=C\c1ccc(O)c(O)c1)c1c(O)cc(/C=C/c2ccc(O)c(O)c2)oc1=O has a documented pIC50 of 4.95

[A] COC(=O)/C(=C\c1ccc(O)c(O)c1)c1c(O)cc(/C=C/c2ccc(O)c(O)c2)oc1=O
[B] O=C(O)/C=C/c1ccc(O)c(O)c1
Select one. Lower pIC50: A or B Identify your pick by its label. B
(B: 4.59, A: 4.95)

---

- Test system: Radical scavenging activity
- MEASUREMENT_PROTOCOL: Antioxidant activity assessed as DPPH radical scavenging activity
- Format: functional
pIC50: −log10 of the molar value.
RESULT_TYPE: pIC50

In plain terms, VITAMIN E has a documented pIC50 of < 4.00

---

- MEASUREMENT_PROTOCOL: Antioxidant activity assessed as superoxide radical anion scavenging activity
- Type: functional
pIC50: −log10 of the molar value.
RESULT_TYPE: pIC50

Illustrative cases are given below, each with its answer.
In plain terms, CC(=O)/C=C(O)/C(=C\c1ccc(O)c(O)c1)c1c(O)cc(/C=C/c2ccc(O)c(O)c2)oc1=O has a documented pIC50 of 5.57

In plain terms, O=C(O)/C=C/c1ccc(O)c(O)c1 has a documented pIC50 of 5.66

[I] COC(=O)/C(=C\c1ccc(O)c(O)c1)c1c(O)cc(/C=C/c2ccc(O)c(O)c2)oc1=O
[II] CC(=O)/C(=C\c1ccc(O)c(O)c1)c1c(O)cc(/C=C/c2ccc(O)c(O)c2)oc1=O
Two entries are listed, I and II . Which one carries the higher pIC50? Identify your pick by its label. II
(II: 5.74, I: 5.51)
